Listed next: entries and their corresponding MIC.
System: Acinetobacter baumannii ABA19-1
Format: cell-based
condition_details: ABA19-1
Bridge positions count the residues as written; N and C are the ends. Square brackets hold non-standard residues; d marks the D form. Peptide text beside a SMILES is read from it. * marks the point of attachment. Nonanoyl = CCCCCCCCC(=O)*; X1 = CC[C@H](C)CCCCC(=O)*; Octanoyl = CCCCCCCC(=O)*; Orn = NCCC[C@H](N)C(=O)O; Dab = NCC[C@H](N)C(=O)O; Dap = NC[C@H](N)C(=O)O
Write the value in µg/mL as a bare number.

Illustrative cases are given below, each with its answer.
compound	measured_target	MIC (µg/mL)
CCCCCCCC(=O)N[C@@H](CCN)C(=O)N[C@H](C(=O)N[C@H](CO)C(=O)N[C@H]1CCNC(=O)[C@H]([C@@H](C)O)NC(=O)[C@H](CCN)NC(=O)[C@H](CCN)NC(=O)[C@H]([C@@H](C)O)NC(=O)[C@@H](Cc2ccccc2)NC(=O)[C@H](CN)NC1=O)[C@@H](C)O [Compound 63] (Octanoyl-[Dab]T[dS][Dab][Dap][dF]T[Dab][Dab]T; lactam 4-C)	Acinetobacter baumannii ABA19-1	0.25
CC[C@H](C)CCCCC(=O)N[C@@H](CCN)C(=O)N[C@H](C(=O)N[C@H](CO)C(=O)N[C@H]1CCNC(=O)[C@H]([C@@H](C)O)NC(=O)[C@H](CCN)NC(=O)[C@H](CCCN)NC(=O)[C@H]([C@@H](C)O)NC(=O)[C@@H](Cc2ccccc2)NC(=O)[C@H](CCN)NC1=O)[C@@H](C)O [Compound 76] (X1-[Dab]T[dS][Dab][Dab][dF]T[Orn][Dab]T; lactam 4-C)	Acinetobacter baumannii ABA19-1	0.06

// next entry
# input Sample CCCCCCCCC(=O)N[C@@H](CCN)C(=O)N[C@H](C(=O)N[C@H](CO)C(=O)N[C@H]1CCNC(=O)[C@H]([C@@H](C)O)NC(=O)[C@H](CCN)NC(=O)[C@H](CN)NC(=O)[C@H]([C@@H](C)O)NC(=O)[C@@H](Cc2ccccc2)NC(=O)[C@H](CCN)NC1=O)[C@@H](C)O [Compound 75] (Nonanoyl-[Dab]T[dS][Dab][Dab][dF]T[Dap][Dab]T; lactam 4-C) — what was its MIC?
# output 0.06

----------
Listed next: entries and their corresponding MIC.
System: Pseudomonas aeruginosa PAE19-3
Type: cell-based
condition_details: PAE19-3
Bridge positions count the residues as written; N and C are the ends. Square brackets hold non-standard residues; d marks the D form. Peptide text beside a SMILES is read from it. * marks the point of attachment. Dab(CH2SO3H) = N[C@@H](CCNCS(=O)(=O)O)C(=O)O; Heptanoyl(6-Me) = CC(C)CCCCC(=O)*; Sulfomethyl = O=S(=O)(O)C*; dOrn = NCCC[C@@H](N)C(=O)O; Nonanoyl = CCCCCCCCC(=O)*; Octanoyl = CCCCCCCC(=O)*; dDap = NC[C@@H](N)C(=O)O; Dab = NCC[C@H](N)C(=O)O; Dap = NC[C@H](N)C(=O)O
Write the value in mg/L as a bare number.

Illustrative cases are given below, each with its answer.
molecule	MIC [mg/L]
CC(C)CCCCC(=O)N[C@@H](CN)C(=O)N[C@H](C(=O)N[C@H](CO)C(=O)N[C@H]1CCNC(=O)[C@H]([C@@H](C)O)NC(=O)[C@H](CCN)NC(=O)[C@H](CCN)NC(=O)[C@H]([C@@H](C)O)NC(=O)[C@@H](Cc2ccccc2)NC(=O)[C@H](CCN)NC1=O)[C@@H](C)O [Compound 52] ({Heptanoyl(6-Me)}-[Dap]T[dS][Dab][Dab][dF]T[Dab][Dab]T; lactam 4-C)	4
CCCCCCCCC(=O)N[C@@H](CCN)C(=O)N[C@H](C(=O)N[C@H](CN)C(=O)N[C@H]1CCNC(=O)[C@H]([C@@H](C)O)NC(=O)[C@H](CCN)NC(=O)[C@H](CCN)NC(=O)[C@H](CC(C)C)NC(=O)[C@@H](Cc2ccccc2)NC(=O)[C@H](CCN)NC1=O)[C@@H](C)O [Compound 35] (Nonanoyl-[Dab]T[dDap][Dab][Dab][dF]L[Dab][Dab]T; lactam 4-C)	0.5
CC(C)CCCCC(=O)N[C@@H](CCN)C(=O)N[C@H](C(=O)N[C@@H](CN)C(=O)N[C@H]1CCNC(=O)[C@H]([C@@H](C)O)NC(=O)[C@H](CCN)NC(=O)[C@H](CCN)NC(=O)[C@H]([C@@H](C)O)NC(=O)[C@@H](Cc2ccccc2)NC(=O)[C@H](CCN)NC1=O)[C@@H](C)OCS(=O)(=O)O [Compound 113] ({Heptanoyl(6-Me)}-[Dab]T(Sulfomethyl)[Dap][Dab][Dab][dF]T[Dab][Dab]T; lactam 4-C)	0.25

# input Sample CCCCCCCC(=O)N[C@@H](CCN)C(=O)N[C@H](C(=O)N[C@H](CCCN)C(=O)N[C@H]1CCNC(=O)[C@H]([C@@H](C)O)NC(=O)[C@H](CCN)NC(=O)[C@H](CCN)NC(=O)[C@H](CC(C)C)NC(=O)[C@@H](Cc2ccccc2)NC(=O)[C@H](CCN)NC1=O)[C@@H](C)O [Compound 43] (Octanoyl-[Dab]T[dOrn][Dab][Dab][dF]L[Dab][Dab]T; lactam 4-C) — what was its MIC?
# output 1

# input Sample CC(C)CCCCC(=O)N[C@@H](CCN)C(=O)N[C@H](C(=O)N[C@@H](CN)C(=O)N[C@H]1CCNC(=O)[C@H]([C@@H](C)O)NC(=O)[C@H](CCNCS(=O)(=O)O)NC(=O)[C@H](CCN)NC(=O)[C@H]([C@@H](C)O)NC(=O)[C@@H](Cc2ccccc2)NC(=O)[C@H](CCN)NC1=O)[C@@H](C)O [Compound 120] ({Heptanoyl(6-Me)}-[Dab]T[Dap][Dab][Dab][dF]T[Dab][Dab(CH2SO3H)]T; lactam 4-C) — what was its MIC?
# output 0.5
